Where these numbers come from: PubChem BioAssay

Reported growth inhibition values are given for each entry in this list.
Experiment: Restrictive medium S. cerevisiae growth inhibition, OD615, pilot screen of yeast lifespan reduction project, restrictive growth control (AID 706);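 further: modified DeaD lifespan yeast strain shifted to restrictive glucose medium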
Conditions: OD615, 48 h, at 10 µM, stronger effect = higher value
Metric: growth inhibition (%)

Compound	Metric	Value
CCN(CC)S(=O)(=O)c1ccc2c3c(cccc13)C(=O)N2	growth inhibition	-11.4
COc1ccc(C2CC(c3ccc(F)cc3)Nc3nc(N)nn32)cc1OC (centres undefined)	growth inhibition	4.9
CSc1nnc(NC(=O)C2CCCCC2)s1	growth inhibition	-6.62
Cc1nnc(NC(=O)CSc2nnc(Cc3cccn3C)n2-c2cccc(C(F)(F)F)c2)s1	growth inhibition	13.7
COc1ccc(S(=O)(=O)N2CCC(C(=O)N3CCN(c4ccccc4OC)CC3)CC2)cc1	growth inhibition	-3.36
Cc1cccc(C)c1NC(=O)CSc1nnc([C@@H]2CCCN2C(=O)OC(C)(C)C)o1	growth inhibition	-6.59
CCOC(=O)C1CCN(C(=O)c2oc3ccc(S(=O)(=O)N4CCCCCC4)cc3c2C)CC1	growth inhibition	-20.9
COC(=O)c1ccc(NS(=O)(=O)c2ccc3c(c2)oc(=O)n3C)cc1	growth inhibition	-3.33
O=C(Nc1cccc(Cl)c1Cl)c1ccncc1	growth inhibition	-0.975

---

Assay: reversal of MRP1-mediated doxorubicin resistance, pilot screen, H69AR cells, doxorubicin co-treatment (AID 601)
Settings: H69AR cells + 2 uM doxorubicin, CellTiter-Glo, 72 h; measured here: viability with 2 uM doxorubicin; at 10 µM; stronger effect = lower value
Reported viability values are given for each entry in this list.
Metric: viability (%)

Molecule	Unit Tag	Value
COc1cc(S(=O)(=O)N2CCC(N3CCCCC3)CC2)ccc1-n1cnnn1	%	89.3
O=C1c2ccccc2C(=O)N1CNc1ccccc1	%	118
COc1ccc(-n2nc(C(=O)Nc3ccc4c(c3)OCO4)c3c4ccccc4n(C)c3c2=O)cc1	%	104
CCOC(=O)N1CCN(C(=O)CCc2ccc(S(=O)(=O)NCCc3ccccc3)cc2)CC1	%	83.1
CCOC(=O)N1CCN(C(=O)CSc2nnc(-c3cc(OC)cc(OC)c3)o2)CC1	%	89.5
c1ccc(SCc2nc3ccccc3[nH]2)nc1	%	97.5
Cc1ccc(-n2ncc(C(=O)N3CCc4ccccc4C3)c2NC(=O)c2ccco2)cc1C	%	89.9
O=C(OCC(=O)N1CCCC1)c1ccccc1OCc1ccccc1	%	88.3
C[C@]12CCC(=O)C=C1CC[C@@H]1[C@@H]2C(=O)C[C@@]2(C)[C@H]1CC[C@]2(O)C(=O)CO	%	88.8
CCOc1ccc(C2C=C(c3ccc(F)cc3)Nc3ncnn32)cc1 (configuration not stated)	%	79.1
COc1ccc(-c2cc(C(=O)Nc3ccc(C)cc3)no2)cc1	%	89.7
FC(F)Sc1nnc(-c2cccs2)n1-c1ccccc1	%	87.9
CC(=O)Nc1ccc(OCC(O)CN2CCN(c3cccc(Cl)c3)CC2)cc1 (configuration not stated)	%	81.5
CCCCN(CCCC)CCCOC(=O)c1ccc(N)cc1	%	99.2
Cn1cc(NC(=O)c2cc(NC(=O)c3cc(NC=O)cn3C)cn2C)cc1C(=O)NCCC(=N)N	%	96.3
O=C(Cn1cnc2c(nnn2-c2ccc(F)cc2)c1=O)N1CCCc2ccccc21	%	86.6
FC(F)(F)c1cccc(N2CCN(Cc3cccnc3)CC2)c1	%	84.9
CCOC(=O)c1ccc(NC(=O)CCNc2c(N3CCCC3)c(=O)c2=O)cc1	%	98
Nc1ccc2[nH]ncc2c1	%	107
COc1cccc(S(=O)(=O)Nc2cccnc2)c1	%	90.3
CCN(CC)CC(C)CNC(=O)CC(C(=O)N1CCc2ccccc21)n1ccnc1 (configuration not stated)	%	104
CC(=O)c1c(C)[nH]c(C(=O)Nc2ccc3c(c2)OCCO3)c1C	%	74.8

---

Experiment: growth inhibitors of H69AR lung tumor, primary screen, human, duplicate replicates (AID 580);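 further: 100% = mean luminescence of untreated wells and 0% = no signal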
Settings: H69AR lung tumor cells viability, ATP luminescence, 72 h; at 10 µM; stronger effect = lower value

Compound	viability / %
CCN(CC)S(=O)(=O)c1ccc(NC2CCCc3ccccc32)nc1 (stereo unspecified)	86
Cc1cccc(CN2CCN(C(c3ccccc3)c3ccc(Cl)cc3)CC2)c1 (stereo unspecified)	96.8
Cc1nn(-c2ccccc2)c2c1C(c1c(C)[nH]c(C#N)c1C)C(C#N)=C(N)O2 (stereo unspecified)	92.7
COc1cccc(Cn2c(OCC3CCCO3)nc3c2c(=O)n(C)c(=O)n3C)c1 (stereo unspecified)	101
CC(C)CNS(=O)(=O)c1ccc(OCC(=O)Nc2ccc3c(c2)OCO3)c(Cl)c1	66.7
Cc1ccc(S(=O)(=O)N(CC(=O)N2CCOCC2)CC(=O)N2CCOCC2)cc1	107
O=C(c1ccco1)N1CCN(c2cccc(Cl)c2)CC1	97.9
Cc1ccc(C)c(-c2nc3cc(N)ccc3o2)c1	102
O=C(NCc1ccco1)C1CCN(S(=O)(=O)N2CCC3(CC2)OCCO3)CC1	100
Cc1oc(-c2ccccc2F)nc1CS(=O)(=O)CC(=O)NCc1ccco1	93.8
CSCCC(NC(=O)c1ccco1)C(=O)O (stereo unspecified)	91.8

---

Assay: reversal of MRP1-mediated doxorubicin resistance, pilot screen, H69AR cells, doxorubicin co-treatment (AID 601)
Details: H69AR cells + 2 uM doxorubicin, CellTiter-Glo, 72 h; at 10 µM; stronger effect = higher value
Reported differential viability (reversal) values are given for each entry in this list.
Metric: differential viability (reversal) (%)

Compound	Unit Tag	Value
CN(C)c1cccc2c(S(=O)(=O)Nc3ccccn3)cccc12	%	2.54
O=C(c1ccccc1Br)N1CCN(c2ccccc2)CC1	%	12.9
CC(=O)Nc1sc2c(c1CN1CCN(c3ccccn3)CC1)CCCC2	%	12
CCC1Oc2ccc(C)cc2N(CC(=O)N(Cc2cccnc2)Cc2ccc(C)o2)C1=O (stereo unspecified)	%	41.1
COc1ccc(CN(CCN(C)C)c2ccccn2)cc1	%	19.5
CC(=O)NCCn1c(SCC(=O)NCC2CCCO2)nc2ccccc2c1=O (stereo unspecified)	%	10.1
NS(=O)(=O)c1cc2c(cc1Cl)NC(C(Cl)Cl)NS2(=O)=O (stereo unspecified)	%	-9.8
Cc1ccc(CSC2=NCCN2C(=O)c2ccco2)cc1	%	2.8
CCCC(=O)Nc1nnc(CC(=O)OCC)s1	%	-0.96
CCN(CC)CCN1C(=O)C(=O)/C(=C(/O)c2c(C)[nH]c(C(=O)OC)c2C)C1c1ccco1 (stereo unspecified)	%	-3.21
O=C(NCc1cccnc1)c1cn(CCc2ccccc2)nn1	%	20.4

---

Reported growth inhibition values are given for each entry in this list.
Assay: OD615 S. cerevisiae growth inhibition, permissive medium, pilot counter-assay, permissive growth control for S. cerevisiae lifespan shortening project (AID 705)
Conditions: OD615, 24 h, at 10 µM, stronger effect = higher value

Compound	growth inhibition [%]
O=C(NCc1cccnc1)NC1(c2ccccc2)CC1	-2.17
CCOC(=O)C1=C(N)OC2=C(C(=O)CCC2)C1c1cccnc1 (stereo unspecified)	-6.66
COc1cc(C(=O)Nc2cc(C)c(OCC(=O)N3CCOCC3)c(C)c2)cc(OC)c1OC	-2.29
Cc1cc(NC(=O)Cn2c(=O)n(Cc3ccccc3)c(=O)c3ccccc32)no1	-5.91
Cc1nc2sc(C(c3cccs3)N3CCN(c4cccc(Cl)c4)CC3)c(O)n2n1 (stereo unspecified)	-5.61
O=C(c1ccc(F)cc1)c1cn[nH]c1-c1ccccc1O	-15.3
CC1CN(C(c2cccs2)c2sc3ncnn3c2O)CC(C)O1 (stereo unspecified)	-15
CC(C)c1ccc(-c2nc(N3CCCC3)nc3n[nH]c(N)c23)cc1	-26.6
O=C(c1ccc(Br)o1)N1CCN=C1SCc1cccnc1	-14.4
Cc1nc(N2CCN(c3ccccc3)CC2)c2c3c(sc2n1)CCC3	-0.345
COc1cc(C2N(c3ccc(Cl)cc3)C(=O)C3CCCN32)cc(OC)c1OC (stereo unspecified)	-6.9

---

Reported viability values are given for each entry in this list.
Assay: growth suppression of PTEN-deleted HCT116, pilot screen, cell-based, HCT116 clonal line, CellTiter-Glo (AID 824);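 further: 0% = 20 µM Hyamine control and 100% = vehicle cell control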
Settings: 60 h, at 10 µM, stronger effect = lower value
Results filed as inconclusive are left out.

Compound	viability, %
Nc1c(C(=O)NCc2cccnc2)sc(=S)n1-c1ccccc1	83.6
CC(C)(Oc1ccc(Cl)cc1)C(=O)OCC(=O)N1CCCC1	96.5
COc1ccc(-n2nnc3c(=O)n(CC(=O)N4CCC(Cc5ccccc5)CC4)cnc32)cc1	80.3
COc1ccc(-c2csc(N3CCN(C(=O)c4ccco4)CC3)n2)cc1	85.1
N#Cc1cn(CC(=O)NCC2CCCO2)c2ccccc12 (stereo unspecified)	91.4
O=C(NCc1ccccc1)c1ccc(CN2CCOCC2)cc1	104
CCCCCn1c(NC2CCCCC2)nc2c1c(=O)[nH]c(=O)n2C	86.1
COc1c2c(nc3ccccc13)OC(C(C)(O)COC(C)=O)C2 (stereo unspecified)	95.7
O=C(c1ccc(CS(=O)(=O)c2ccc(Br)cc2)o1)N1CCOCC1	97.3
CCn1c(CNC(=O)C(C)(C)C)nc2ccccc21	101
CC(C)c1nc(SCC(=O)N2CCOCC2)c2c(=O)n(C)c(=O)n(C)c2n1	95.6
